test: NCI Yeast Anticancer Drug Screen. Data for the mlh1 rad18 strain (AID 175); conditions: S. cerevisiae mlh1 rad18 strain growth inhibition; at 50.0 µM; stronger effect = higher value
About 79,000 compounds went through this panel and 15% of them were active in at least one assay; those are over-represented in the sample as a whole.
Recorded measurements of growth inhibition, one per entry
Could you give me the number in %? Just the number is fine.

Below are worked cases with known answers.
Nc1nc(N)nc(CC(=O)O)n1: -36.7
Cc1nc2c(=O)[nH]c3ccccc3c2o1: -32.4
CN(C)Cc1[nH]c2ccccc2c1Sc1ccccc1: 30.8

Returns the measured growth inhibition for the input compound. Input: `O=C(c1ccccc1)c1ccccc1`
14.1

Could you share which growth inhibition value was measured for `Cc1cc(=O)c2ccccc2n1CCCCCCCCCCn1c(C)cc(=O)c2ccccc21` ?
26.4

---

assay: NCI Yeast Anticancer Drug Screen. Data for the bub3 strain (AID 167); conditions: S. cerevisiae bub3 mutant strain, at 50.0 µM, stronger effect = higher value
The panel holds about 79,000 compounds, 15% with a hit somewhere; the sample as a whole holds those more often.
Recorded growth inhibition for the following molecules
Give the number; % is assumed, so skip it.

Example cases with answers are listed next.
CC(=O)N(C)c1ccc(NC(=O)Nc2c(C)cccc2C)cc1: 19.6
NC1=NN(c2ccccc2)C(=O)C1/C(=N\NC(=O)c1cc2ccccc2cc1O)C(=O)Nc1cccc(C(F)(F)F)c1 (stereo not drawn): 20.5

Fill in: growth inhibition of COC(=O)C(=O)C(C(=O)C1=NS(=O)(=O)c2cc(S(N)(=O)=O)c(Cl)cc2N1)c1nc2ccc(C(=O)c3ccccc3)cc2[nH]c1=O (stereo not drawn) is ___
-19.9

---

# growth inhibition values compiled below
Test: NCI Yeast Anticancer Drug Screen. Data for the mlh1 rad18 strain (AID 175)
Settings: S. cerevisiae mlh1 rad18 strain growth inhibition; at 50.0 µM; stronger effect = higher value
Description: Growth inhibition of yeast strains with defined genetic alterations is measured as a screen for potential anti-cancer activity. Selected strains with alterations in DNA damage repair or cell cycle control were exposed to compounds and growth inhibition was measured relative to vehicle treated controls. The strain used in this assay is mlh1 rad18
This is part of a sample that, as a whole, favours compounds with a hit. Of some 79,000 tested, about 15% had one in any assay.
Unit % implied. Number only.

Known results for molecules:
COC(=O)C(=NNc1ccccc1[N+](=O)[O-])C(=O)OC: -2.6
C/C=C/C(=O)Oc1ccccc1/C=C/C(=O)CCCCCC: 10.9
COc1cc(NS(C)(=O)=O)ccc1Nc1c2ccccc2nc2c1[nH]c1ccc(NC3OC(CO)C(O)C(O)C3O)cc12 (stereo not given): -27.6
CCC(c1ccc(N(CC)CC)cc1[N+](=O)[O-])c1ccc(N(CC)CC)cc1[N+](=O)[O-]: 20.1

Could you now look at the following molecule, please?
What growth inhibition value was documented for this molecule, O=[N+]([O-])c1ccc(OC2CC3C4C=CC3C2C4)c([N+](=O)[O-])c1 (stereo not given) ?
-24.6

---

test: NCI Yeast Anticancer Drug Screen. Data for the mlh1 rad18 strain (AID 175); conditions: S. cerevisiae mlh1 rad18 strain growth inhibition; at 50.0 µM; stronger effect = higher value
The panel holds about 79,000 compounds, 15% with a hit somewhere; the sample as a whole holds those more often.
propertyName: growth inhibition (%)
Just the number please, in %, no unit attached.

Sample records with growth inhibition:
O=S(O)CCCSSSCCCS(=O)O: 38.6
O=C(CC(=O)Nc1ccccc1)NNC(Sc1ccccc1)c1cc(N=Nc2ccc(Br)cc2)ccc1O (stereo not given): -4.7

So what does the record say about growth inhibition for COc1cc2c3c4c1OCc1c5c(cc(c1-4)CC3[N+](C)(C)CC2)OCO5 (stereo not given) ?
-52.1

What value of growth inhibition has been recorded for this entry: `CN(C)Cc1cc(C(=O)/C=C/c2ccc(Cl)cc2Cl)cc(CN(C)C)c1O`
13.8

Value lookup for growth inhibition; key = CCCCS(=O)(=O)C1CCCC1=O (stereo not given)
1.9

Please look up its growth inhibition: `CC1=C(c2cc(C(=O)Nc3nccs3)nc(NC#N)n2)Sc2ccccc2N1`
10.3

Form field: reported growth inhibition of `Cc1cc(N(CCCOS(C)(=O)=O)CCCOS(C)(=O)=O)ccc1C=Nc1cc(Cl)c(O)c(Cl)c1`
54.5

Please report the recorded growth inhibition for `O=C(Cc1nc2sc3c(c2c(=O)[nH]1)CCCC3)Nc1ccccc1` .
-17.6

Look at this compound and give its reported growth inhibition. `CCn1c(=O)c2ccccc2c2cc([N+](=O)[O-])ccc21`
-2.7

Which measured growth inhibition value corresponds to `CCOC(=O)/C=C\[C@H]1OC(C)(C)O[C@H]1[C@H](O)[C@H]1COC(C)(C)O1` ?
-9.6

Form field: reported growth inhibition of CSCCC(NCc1c(O)ccc2c(-c3ccccc3)cc(=O)oc12)C(=O)O (stereo not given)
-31.2

Return reported growth inhibition; argument: `CCNC(=O)c1ccccc1C(=O)c1ccccc1`
11.5

Suppose we examine the compound `O=c1[nH]cnc2c1cnn2Cc1ccccc1` ; what growth inhibition value has been reported?
1.95

growth inhibition for COCC12CC(CC1=O)C1C2ON2c3ccccc3C(=O)C12c1ccccc1 (stereo not given) ?
18.6

Can you look up the measured growth inhibition of COc1cc(O)c(C(C)c2ccccc2)cc1N=O (stereo not given) for me?
-6.15

What value of growth inhibition has been recorded for this entry: Cc1ccc2c(c1)C(c1cccc3ccccc13)OC2=O (stereo not given)
29.4

Using the record for `CCCCCCCCC(C)C` , report its growth inhibition.
-2.65

Which growth inhibition value belongs to `Nc1ccc(S(=O)(=O)O)cc1[N+](=O)[O-]` ?
12.6

I would be grateful if you could share the reported growth inhibition for `OCCOc1ccccc1-c1ccccc1` .
-7.65

Look at this compound and give its reported growth inhibition. `CCOC(=O)c1cc(/C=C/C(C)=C/C(=O)OC)oc1C`
1.25

---

growth inhibition for assorted molecules
Experiment: NCI Yeast Anticancer Drug Screen. Data for the sgs1 mgt1 strain (AID 161);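 note: 0% = growth of cultures given vehicle only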
Details: S. cerevisiae sgs1 mgt1 strain, at 50.0 µM, stronger effect = higher value
Protocol: Growth inhibition of yeast strains with defined genetic alterations is measured as a screen for potential anti-cancer activity. Selected strains with alterations in DNA damage repair or cell cycle control were exposed to compounds and growth inhibition was measured relative to vehicle treated controls. The strain used in this assay is sgs1 mgt1
This is part of a sample that, as a whole, favours compounds with a hit. Of some 79,000 tested, about 15% had one in any assay.
# output: bare number, implied unit %

Below, each entry is followed by its recorded growth inhibition result.
CN(C)CC1CCCCCC(Br)C1O (stereo not drawn): -1.15
O=[N+]([O-])c1ccc(N/N=C2\C=C(c3ccccc3)C(c3ccccc3)C2)c([N+](=O)[O-])c1 (stereo not drawn): -9.25
Cc1ccc(S(=O)(=O)c2ccc(C)cc2[N+](=O)[O-])cc1: 18.5
CC(C)c1ccc(C=O)cc1: -21.5
CCCCCC(Cl)(CC)CCCCC: -16.6

Please look up its growth inhibition: `CCSCCOC(=S)Nc1ccccc1`
-4.9

Fill blank: measured growth inhibition of the molecule `NC(=O)[N+](=CC(=S)Nc1ccccc1Cl)C(N)=O` is ____.
-36.7

What growth inhibition value was documented for this molecule, `[N-]=[N+]=Nc1cc(=O)n(-c2ccccc2)c(=O)n1-c1ccccc1` ?
13.3

---

assay: NCI Yeast Anticancer Drug Screen. Data for the mec2-1 strain (AID 157); conditions: S. cerevisiae mec2-1 strain, at 50.0 µM, stronger effect = higher value
This is part of a sample that, as a whole, favours compounds with a hit. Of some 79,000 tested, about 15% had one in any assay. Activity calls are given as the source filed them. Rule as the data show it: active = growth inhibition above about 70%; inactive = the rest.
propertyName: growth inhibition

Use the examples below as a reference point.
COc1ccc(Cc2cc(OC)c(OC)c(OC)c2)cc1O: 11.4% (inactive)
CC(=O)Nc1cc(Br)cc2c1-c1ccc(Br)cc1C2: 14.7% (inactive)
CC(C)Cn1cnc2c(SCc3ccccn3)nc(N)nc21: -17.4% (inactive)
COC(=O)C12C3C4C1C1C2C3C41C(=O)N(C(C)C)C(C)C (configuration not stated): -1.45% (inactive)
COc1ccc([N+](=O)[O-])cc1N=NN(C)C: -11.7% (inactive)

Now look at this entry.
Please look up its growth inhibition: `CCCCCCC(=O)/C=C/c1ccccc1OC`
-12.2% (inactive)

---

In this section we review reported growth inhibition values for a set of molecules.
Assay: NCI Yeast Anticancer Drug Screen. Data for the mlh1 rad18 strain (AID 175)
Conditions: S. cerevisiae mlh1 rad18 strain growth inhibition; at 50.0 µM; stronger effect = higher value
Experimental: Growth inhibition of yeast strains with defined genetic alterations is measured as a screen for potential anti-cancer activity. Selected strains with alterations in DNA damage repair or cell cycle control were exposed to compounds and growth inhibition was measured relative to vehicle treated controls. The strain used in this assay is mlh1 rad18
The panel holds about 79,000 compounds, 15% with a hit somewhere; the sample as a whole holds those more often.
Numbers only here, please. The scale is %.

Illustrative cases are given below, each with its answer.
NNC(=O)CC(=O)Nc1ccc(S(=O)(=O)c2ccc(NC(=O)CC(=O)NN)cc2)cc1: -1
O=C(/C=C/c1ccccc1Cl)c1ccc(Cl)c(Cl)c1: 29.4

Requested field: growth inhibition. Item: `O=[N+]([O-])c1cccc(NSNc2cccc([N+](=O)[O-])c2)c1`
11
